# measurementProtocol: chemical genetic growth profiling, strain panel (AID 1159580)
# conditionInfo: S. cerevisiae deletion strains, growth OD, locus YDR502C, strain sam2
Hit rate of the full screen: of about 5,500 compounds, about 2,000 (36%) were called active. Inconclusive results (about 18%) are left out. Rule as the data show it: active = normalized growth mostly below about 0.91 (no sharp cut-off); inconclusive = no clear call, values can overlap the other calls; inactive = mostly above about 0.92. Some of the results follow.
Labels: label 1 = active, label 0 = inactive

compound="C[N+]1(C)CCCC(OC(=O)C(O)(c2ccccc2)c2ccccc2)C1 (stereo not given)" classassignment="label 0"
compound=CCCN(CCC)c1c([N+](=O)[O-])cc(C(F)(F)F)cc1[N+](=O)[O-] classassignment="label 0"
compound="COc1cc2c(cc1OC)C(C)NCC2 (stereo not given)" classassignment="label 0"
compound=CC(C)[C@@H]1CC[C@@H](C)CC1=O classassignment="label 0"
compound="C=C(C)C1Cc2c(ccc(C(=O)O)c2O)O1 (stereo not given)" classassignment="label 0"
compound="CC(C)c1cc2c(c(O)c1O)[C@@]1(C(=O)O)CCCC(C)(C)C1CC2 (stereo not given in full)" classassignment="label 0"
compound="C=C(C)C1Cc2c(ccc3c(=O)c4c(oc23)COc2cc(OC)c(OC)cc2-4)O1 (stereo not given)" classassignment="label 0"
compound=Oc1cccc2cccnc12 classassignment="label 1"
compound=CCCCN(CC)c1c([N+](=O)[O-])cc(C(F)(F)F)cc1[N+](=O)[O-] classassignment="label 0"
compound=CC(C)Cn1c(=O)n(C)c(=O)c2[nH]cnc21 classassignment="label 0"

====

# measurementProtocol: chemical genetic growth profiling, strain panel (AID 1159580)
# conditionInfo: S. cerevisiae deletion strains, growth OD, locus YGR229C, strain SMI1
The whole screen tested about 5,500 compounds, of which about 2,000 (36%) were called active. Inconclusive results (about 18%) are left out. Cut-off read from the data, not from the text of the source: active = normalized growth mostly below about 0.91 (no sharp cut-off); inconclusive = no clear call, values can overlap the other calls; inactive = mostly above about 0.92. Some of the results follow.
Possible outcomes: active, inactive

molecule=C/C(=C\CO)CC[C@H](C)CCC[C@H](C)CCCC(C)C classassignment=inactive
molecule="CNC(C)[C@@H]1CC[C@@H](N)[C@@H](OC2[C@@H](N)C[C@@H](N)[C@H](OC3OC[C@](C)(O)[C@H](NC)[C@H]3O)[C@H]2O)O1 (stereo partly specified)" classassignment=inactive
molecule=COc1cc2ncnc(Nc3cccc(Cl)c3)c2cc1OC classassignment=inactive
molecule=O=C(N[C@@H](CO)[C@H](O)c1ccc([N+](=O)[O-])cc1)C(Cl)Cl classassignment=inactive
molecule="O=C1C(=O)c2ccccc2C(O)=C1C1CCC(c2ccc(Cl)cc2)CC1 (stereo unspecified)" classassignment=inactive
molecule=N[C@@H](C(=O)N[C@@H]1C(=O)N2C(C(=O)O)=C(Cl)CS[C@H]12)c1ccccc1 classassignment=inactive
molecule="CC(C)c1cc2c(c(O)c1O)[C@@]1(C(=O)O)CCCC(C)(C)C1CC2 (stereo partly specified)" classassignment=active
molecule=O=C1c2ccccc2C(=O)c2ccccc21 classassignment=inactive
molecule="NC(Cc1ccc(Cl)cc1)C(=O)O (stereo unspecified)" classassignment=inactive
molecule="COc1ccc2c(c1)C13CCCCC1C(C2)N(C)CC3 (stereo unspecified)" classassignment=inactive
molecule="NC1CONC1=O (stereo unspecified)" classassignment=inactive

====

# measurementProtocol: chemical genetic growth profiling, strain panel (AID 1159580)
# conditionInfo: S. cerevisiae deletion strains, growth OD, locus YOR083W, strain WHI5
Screen size: about 5,500 compounds; about 2,000 (36%) were called active. About 18% were inconclusive and are not listed. Rule as the data show it: active = normalized growth mostly below about 0.91 (no sharp cut-off); inconclusive = no clear call, values can overlap the other calls; inactive = mostly above about 0.92. The other results are listed elsewhere or left out.
Possible outcomes: active, inactive

compound=CNC(=O)Oc1ccccc1OC(C)C classassignment=inactive
compound=C=C[C@H]1CN2CC[C@H]1C[C@H]2[C@H](O)c1ccnc2ccccc12 classassignment=inactive
compound="CC(=O)O[C@@H]1C2CC[C@@H]3C1(C[C@@H](O)[C@@]1(O)[C@@H](C[C@H](O)C1(C)C)[C@]3(C)O)C[C@@]2(C)O (stereo partly specified)" classassignment=inactive
compound=C/C(=C\CO)CC[C@H](C)CCC[C@H](C)CCCC(C)C classassignment=active
compound="CC(=O)OC1CCC23CC1(C)CCC2C(C)(C)CC3OC(C)=O (stereo unspecified)" classassignment=inactive
compound=CC(C)=CCC/C(C)=C/CO classassignment=inactive
